- Test system: HT-29
- experiment_summary: Cytotoxicity against human HT-29 cells in oxic condition after 4 hrs by sulforhodamine B assay
- Assay type: functional, cell-based
- assay_context: HT-29, 4 h
pIC50: −log10 of the molar value.
# label = 1 (yes) if pIC50 >= 6 else 0 (no)

# bool: pIC50 of COc1cc2cc(C(=O)N3CC(CCl)c4c3cc([N+](=O)[O-])c3ccc(S(N)(=O)=O)cc43)[nH]c2c(OC)c1OC (stereo not drawn) >= 6
0 (no)

Does CN(C)CCOc1ccc2[nH]c(C(=O)N3CC(CCl)c4c3cc([N+](=O)[O-])c3ccccc43)cc2c1 (stereo not drawn) have a reported pIC50 of at least 6?
1 (yes)

In plain terms: is recorded pIC50 at least 6 for COc1cc2cc(C(=O)N3CC(CCl)c4c3cc(N)c3ccc(S(C)(=O)=O)cc43)[nH]c2c(OC)c1OC (stereo not drawn) ?
0 (no)

Reported pIC50 at or above 6? CC(=O)c1ccc2c3c(cc(N)c2c1)N(C(=O)c1cc2cc(OCCN(C)C)ccc2[nH]1)CC3CCl (stereo not drawn)
0 (no)

Assess whether reported pIC50 for COC(=O)c1ccc2c([N+](=O)[O-])cc3c(c2c1)C(CCl)CN3C(=O)c1cc2cc(OCCN(C)C)ccc2[nH]1 (stereo not drawn) sits at 6 or higher.
1 (yes)
